The measurements presented in this section are drawn from patent US12565491B2.

Entries annotated with measured pIC50
Measurement target: ASK-1 enzyme (Homo sapiens)
Sequence (Q99683 649-946 limits assumed): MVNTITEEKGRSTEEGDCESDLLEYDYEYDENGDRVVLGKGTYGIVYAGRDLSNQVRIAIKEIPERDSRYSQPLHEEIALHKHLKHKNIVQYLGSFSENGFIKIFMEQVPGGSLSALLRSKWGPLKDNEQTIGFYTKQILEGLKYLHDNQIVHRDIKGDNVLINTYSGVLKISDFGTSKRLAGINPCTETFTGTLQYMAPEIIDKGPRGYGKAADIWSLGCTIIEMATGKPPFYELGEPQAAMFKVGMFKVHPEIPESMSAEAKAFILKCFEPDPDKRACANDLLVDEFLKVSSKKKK
Please report pIC50 as the negative decimal logarithm of the molar concentration, giving only the number.

Use the examples below as a reference point.
CC(C)n1cnnc1-c1cccc(N2CSc3ccc(-c4cnn(C5CC5)c4)cc3C2=O)n1 [Example 24]: 7.58
Cc1cc2c(cc1-c1cnn(C3CCOC3)c1)C(=O)N(c1cccc(-c3nncn3C(C)C)n1)CO2 (centres unmarked) [Example 18]: 7.97
Cc1ncc(-c2ccc3c(c2)C(=O)N(c2cccc(-c4nncn4C(C)C)n2)CS3)cn1 [Example 25]: 7.11

Next, consider the following compound.
# value lookup — system ASK-1 enzyme (Homo sapiens), readout pIC50, item CC(C)CCn1cc(-c2ccc3c(c2)C(=O)N(c2cccc(-c4nncn4C(C)C)n2)CO3)cn1 [Example 11]
7.73
